Hey, just so you know, these numbers are from patent US11078198B2.

Give measured log10 of EC50 for each item. Keep answers brief.
ASSAY_SYSTEM: human FXR (Homo sapiens, UniProt Q96RI1)
ASSAY_DETAILS: transient human FXR/Gal4-luciferase reporter assay
TEST_PARAMETERS: Gal4-hFXR transfected HEK293 reporter cells; relative to 8 μM GW-4064
A value of 2 here means EC50 of 100 in nM, since values are log10.

Example compounds with recorded log10 of EC50:
Incoming: Look up log10 of EC50 for this compound: `Cn1c(C(=O)O)cc2cc(N3CCC4(C=C(c5c(-c6ccccc6OC(F)(F)F)noc5C5CC5)C4)CC3)ncc21`
Outgoing: 3.37

Incoming: What do we get for `C[Si](C)(C)CCOCn1cc(C(=O)O)c2ccc(N3CCC4(C=C(c5c(-c6c(Cl)cccc6Cl)noc5C5CC5)C4)CC3)cc21` ?
Outgoing: 2.65

Incoming: What do we get for `COc1cc(C(=O)O)nc2ccc(N3CCC4(C=C(c5c(-c6c(Cl)cc(F)cc6Cl)noc5C5CC5)C4)CC3)cc12` ?
Outgoing: 1.73

Incoming: What do we get for `O=C(O)c1cc(F)c2nc(N3CCC4(CC3)CC(O)(c3c(-c5c(Cl)cccc5Cl)noc3C3CC3)C4)sc2c1` ?
Outgoing: 3.68

// for each compound in input: emit log10 of EC50
1. O=C(NS(=O)(=O)C1CC1)c1cc(OC(F)F)c2cc(N3CCC4(C=C(c5c(-c6cccnc6C(F)(F)F)noc5C5CC5)C4)CC3)ccc2n1
2. CC(C)c1onc(-c2c(Cl)cccc2Cl)c1C1=CC2(CCN(c3ccc4nc(C(=O)O)cc(C(F)(F)F)c4c3)CC2)C1

Outgoing:
[2.15, 2.10]

---

ASSAY_SYSTEM: human FXR (Homo sapiens)
Sequence (Q96RI1 262-486 limits assumed): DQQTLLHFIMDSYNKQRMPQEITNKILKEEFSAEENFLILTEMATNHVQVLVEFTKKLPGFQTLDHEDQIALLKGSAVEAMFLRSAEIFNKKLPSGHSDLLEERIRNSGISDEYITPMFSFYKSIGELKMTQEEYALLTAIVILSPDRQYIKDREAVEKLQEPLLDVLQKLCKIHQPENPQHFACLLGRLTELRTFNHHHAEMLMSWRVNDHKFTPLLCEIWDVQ
ASSAY_DETAILS: transient human FXR/Gal4-luciferase reporter assay
TEST_PARAMETERS: Gal4-hFXR transfected HEK293 reporter cells; relative to 8 μM GW-4064
RESULT_TYPE: pEC50
Give bare numbers, as −log10 of the molar value.

Example molecules with recorded pEC50:
Incoming: Give the reported pEC50 for O=C(O)c1cccc(N2CCC3(C=C(c4c(-c5c(Cl)cccc5Cl)noc4C4CC4)C3)CC2)n1 [Example 4] (system: human FXR (Homo sapiens)).
Outgoing: 6.15

Incoming: What do we get for O=C(O)c1cc(F)c2nc(N3CCC4(CC3)CC(c3c(C(F)F)cnn3-c3ccccc3C(F)(F)F)C4)sc2c1 [Example 215] ?
Outgoing: 6.00

Incoming: What do we get for O=C(O)c1cc(C(F)(F)F)c2cc(N3CCC4(C=C(c5c(-c6ccccc6C(F)(F)F)noc5C5CC5)C4)CC3)ccc2n1 [Example 99] ?
Outgoing: 7.04

Incoming: What do we get for COc1cc(C(=O)NS(C)(=O)=O)nc2ccc(N3CCC4(C=C(c5c(-c6c(Cl)cncc6Cl)noc5C5CC5)C4)CC3)cc12 [Example 195] ?
Outgoing: 7.12

Now turn to the next molecule.
Incoming: Give the reported pEC50 for O=C(O)c1ncc(N2CCC3(C=C(c4c(-c5c(Cl)cccc5Cl)noc4C4CC4)C3)CC2)cn1 [Example 22] (system: human FXR (Homo sapiens)).
Outgoing: 5.82

---

ASSAY_SYSTEM: human FXR (Homo sapiens)
ASSAY_DETAILS: transient human FXR/Gal4-luciferase reporter assay
TEST_PARAMETERS: Gal4-hFXR transfected HEK293 reporter cells; relative to 8 μM GW-4064
Dear colleague, classification is by EC50, with ranges listed here: lo = under 100 nM, med = from 100 nM up to 400 nM, hi = 400 nM and over

Field: example entries. Status: answers known.
Incoming: # bin lookup: classify O=C(O)c1cc(C(F)(F)F)c2cc(N3CCC4(C=C(c5c(-c6cnccc6C(F)(F)F)noc5C5CC5)C4)CC3)ccc2n1 [Example 90] by its EC50
Outgoing: med

Incoming: What do we get for O=C(O)c1cc(C(F)(F)F)c2cc(N3CCC4(C=C(c5c(-c6c(F)cccc6F)noc5C5CC5)C4)CC3)ccc2n1 [Example 82] ?
Outgoing: med

Here is the next item to consider.
Incoming: # bin lookup: classify O=C(O)c1ccc(N2CCC3(CC2)CC(c2c(-c4ccccc4C(F)(F)F)noc2C2CC2)C3)nc1 [Example 37] by its EC50
Outgoing: hi

---

ASSAY_SYSTEM: UniProtKB Q96RI1
Sequence (Q96RI1 262-486 limits assumed): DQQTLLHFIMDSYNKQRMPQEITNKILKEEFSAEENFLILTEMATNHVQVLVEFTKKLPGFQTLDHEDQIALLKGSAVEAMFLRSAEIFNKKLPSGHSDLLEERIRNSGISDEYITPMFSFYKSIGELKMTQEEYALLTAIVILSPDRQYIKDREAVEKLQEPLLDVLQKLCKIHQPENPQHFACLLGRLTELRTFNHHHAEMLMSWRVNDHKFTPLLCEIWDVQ
ASSAY_DETAILS: transient human FXR/Gal4-luciferase reporter assay
TEST_PARAMETERS: Gal4-hFXR transfected HEK293 reporter cells; relative to 8 μM GW-4064
# note: boundary value 200 nM maps to Condition not met; EC50 below it maps to Condition met

Field: example entries. Status: answers known.
Incoming: Regarding O=C(O)c1cc2ccc(N3CCC4(C=C(c5c(-c6c(Cl)cccc6Cl)noc5C5CC5)C4)CC3)cc2nn1 [Example 53] , kindly confirm whether its EC50 is beneath 200 nM.
Outgoing: Condition met

Incoming: What do we get for O=C(O)c1cc(F)c2nc(OC3CCC4(C=C(c5c(-c6c(Cl)cccc6Cl)noc5C5CC5)C4)CC3)sc2c1 (centres unmarked) [Example 209] ?
Outgoing: Condition not met

Incoming: What do we get for O=C(O)c1ccc(N2CCC3(C=C(c4c(-c5ncccc5Cl)noc4C4CC4)C3)CC2)nc1 [Example 171] ?
Outgoing: Condition not met

Incoming: What do we get for NS(=O)(=O)NC(=O)c1cc(F)c2nc(N3CCC4(C=C(c5c(-c6c(Cl)cncc6Cl)noc5C5CC5)C4)CC3)sc2c1 [Example 197] ?
Outgoing: Condition not met

Incoming: What do we get for Cc1cc(N2CCC3(C=C(c4c(-c5c(Cl)cccc5Cl)noc4C4CC4)C3)CC2)ncc1C(=O)O [Example 115] ?
Outgoing: Condition met

More entries:
Incoming: Regarding CCOC(=O)c1cc(C(F)(F)F)c2cc(N3CCC4(C=C(c5c(-c6c(Cl)cncc6Cl)noc5C5CC5)C4)CC3)ccc2n1 [Example 203] , kindly confirm whether its EC50 is beneath 200 nM.
Outgoing: Condition not met

Incoming: What do we get for O=C(O)c1cc(OC(F)F)c2cc(N3CCC4(C=C(c5c(-c6cccnc6C(F)(F)F)noc5C5CC5)C4)CC3)ccc2n1 [Example 77] ?
Outgoing: Condition met

Incoming: What do we get for O=C(O)c1cc(OCCO)c2cc(N3CCC4(C=C(c5c(-c6ccccc6C(F)(F)F)noc5C5CC5)C4)CC3)ccc2n1 [Example 143] ?
Outgoing: Condition met

Incoming: What do we get for Cc1c(N2CCC3(C=C(c4c(-c5ccccc5C(F)(F)F)noc4C4CC4)C3)CC2)ccc2cc(C(=O)O)cnc12 [Example 170] ?
Outgoing: Condition not met

Incoming: What do we get for COc1cc(C(=O)O)nc2ccc(N3CCC4(C=C(c5c(-c6c(Cl)cncc6Cl)noc5C5CC5)C4)CC3)cc12 [Example 108] ?
Outgoing: Condition met

Incoming: What do we get for CCOC(=O)c1cc(F)c2nc(N3[C@@H]4CC[C@H]3C[C@@]3(COC(c5c(-c6c(Cl)cccc6Cl)noc5C5CC5)O3)C4)sc2c1 (some centres unmarked) [Example 40] ?
Outgoing: Condition not met

Incoming: What do we get for O=C(O)c1cc(C(F)(F)F)c2cc(N3CCC4(C=C(c5c(-c6c(F)cccc6Cl)noc5C5CC5)C4)CC3)ccc2n1 [Example 88] ?
Outgoing: Condition met

Incoming: What do we get for Cc1cc(C(=O)O)nc(N2CCC3(C=C(c4c(-c5ccccc5C(F)(F)F)noc4C4CC4)C3)CC2)n1 [Example 169] ?
Outgoing: Condition not met

Incoming: What do we get for COc1cc(C(=O)O)nc2ccc(N3CCC4(C=C(c5c(-c6ccncc6Cl)noc5C5CC5)C4)CC3)cc12 [Example 109] ?
Outgoing: Condition met

Incoming: What do we get for O=C(O)c1cc(F)c2nc(N3CCC4(C=C(c5c(-c6c(F)cccc6Cl)noc5C5CC5)C4)CC3)sc2c1 [Example 136] ?
Outgoing: Condition met

Incoming: What do we get for O=C(O)c1cc(F)c2nc(N3CCC4(CC3)COC(c3c(-c5ccccc5OC(F)(F)F)noc3C3CC3)O4)sc2c1 (centres unmarked) [Example 42] ?
Outgoing: Condition not met

Incoming: What do we get for O=C(O)c1cc(F)c2nc(N3CCC4(C=C(c5c(C(F)F)cnn5-c5ccccc5OC(F)(F)F)C4)CC3)sc2c1 [Example 217] ?
Outgoing: Condition not met
